System: MV-4-11 cells
ASSAY REMARKS: AML cell viability, CellTiter-Glo, MV-4-11 cells
Format: cell-based
ASSAY CONDITIONS: Homo sapiens, MV4-11, 44 h, read-out: Cell viability classification
pIC50: −log10 of the molar value.
OBSERVED PROPERTY: pIC50

>  <COMPOUND>
O=C1CCC(N2Cc3cc(C(=O)N4CCc5ccccc54)ccc3C2=O)C(=O)N1 (centres unmarked) [Example 11]

>  <SYSTEM>
MV-4-11 cells

>  <OBSERVED PROPERTY>
pIC50

>  <TEST VALUE>
> 7.00

$$$$

Then there is this compound:
Challenge: Entry O=C1CCC(N2Cc3cc(C(=O)N[C@H]4CCc5ccccc54)ccc3C2=O)C(=O)N1 (some centres unmarked) [Example 1] needs its pIC50 filled in; supply it.
Response given: > 7.00

###

SYSTEM: GSPT1 (Homo sapiens, UniProt P15170+Q96SW2)
Sequence (P15170 whole entry): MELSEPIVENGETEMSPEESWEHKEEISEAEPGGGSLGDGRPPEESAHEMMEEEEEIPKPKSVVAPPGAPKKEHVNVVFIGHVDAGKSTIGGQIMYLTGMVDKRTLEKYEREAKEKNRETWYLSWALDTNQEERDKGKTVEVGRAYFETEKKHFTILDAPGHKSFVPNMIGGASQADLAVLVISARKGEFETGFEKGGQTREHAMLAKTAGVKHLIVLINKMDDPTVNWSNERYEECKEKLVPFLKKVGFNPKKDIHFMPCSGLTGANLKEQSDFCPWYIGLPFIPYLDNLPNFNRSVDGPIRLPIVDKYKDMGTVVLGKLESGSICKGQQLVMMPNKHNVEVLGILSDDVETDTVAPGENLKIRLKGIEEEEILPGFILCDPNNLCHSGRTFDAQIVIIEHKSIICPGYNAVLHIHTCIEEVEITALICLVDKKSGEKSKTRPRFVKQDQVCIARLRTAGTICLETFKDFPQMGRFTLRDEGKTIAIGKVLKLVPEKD
Sequence (Q96SW2 whole entry): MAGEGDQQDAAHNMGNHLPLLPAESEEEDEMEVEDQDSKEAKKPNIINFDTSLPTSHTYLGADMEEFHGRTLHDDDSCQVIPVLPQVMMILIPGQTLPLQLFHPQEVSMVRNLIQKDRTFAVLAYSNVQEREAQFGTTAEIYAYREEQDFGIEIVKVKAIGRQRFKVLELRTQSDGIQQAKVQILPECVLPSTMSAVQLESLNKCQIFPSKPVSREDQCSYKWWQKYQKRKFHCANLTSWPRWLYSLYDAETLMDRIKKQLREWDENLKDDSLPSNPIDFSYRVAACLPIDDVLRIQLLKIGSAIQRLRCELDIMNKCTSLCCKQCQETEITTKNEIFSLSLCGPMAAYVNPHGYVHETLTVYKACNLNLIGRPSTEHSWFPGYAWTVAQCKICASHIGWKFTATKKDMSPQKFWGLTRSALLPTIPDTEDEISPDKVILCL
Sequence (Q16531 whole entry partner): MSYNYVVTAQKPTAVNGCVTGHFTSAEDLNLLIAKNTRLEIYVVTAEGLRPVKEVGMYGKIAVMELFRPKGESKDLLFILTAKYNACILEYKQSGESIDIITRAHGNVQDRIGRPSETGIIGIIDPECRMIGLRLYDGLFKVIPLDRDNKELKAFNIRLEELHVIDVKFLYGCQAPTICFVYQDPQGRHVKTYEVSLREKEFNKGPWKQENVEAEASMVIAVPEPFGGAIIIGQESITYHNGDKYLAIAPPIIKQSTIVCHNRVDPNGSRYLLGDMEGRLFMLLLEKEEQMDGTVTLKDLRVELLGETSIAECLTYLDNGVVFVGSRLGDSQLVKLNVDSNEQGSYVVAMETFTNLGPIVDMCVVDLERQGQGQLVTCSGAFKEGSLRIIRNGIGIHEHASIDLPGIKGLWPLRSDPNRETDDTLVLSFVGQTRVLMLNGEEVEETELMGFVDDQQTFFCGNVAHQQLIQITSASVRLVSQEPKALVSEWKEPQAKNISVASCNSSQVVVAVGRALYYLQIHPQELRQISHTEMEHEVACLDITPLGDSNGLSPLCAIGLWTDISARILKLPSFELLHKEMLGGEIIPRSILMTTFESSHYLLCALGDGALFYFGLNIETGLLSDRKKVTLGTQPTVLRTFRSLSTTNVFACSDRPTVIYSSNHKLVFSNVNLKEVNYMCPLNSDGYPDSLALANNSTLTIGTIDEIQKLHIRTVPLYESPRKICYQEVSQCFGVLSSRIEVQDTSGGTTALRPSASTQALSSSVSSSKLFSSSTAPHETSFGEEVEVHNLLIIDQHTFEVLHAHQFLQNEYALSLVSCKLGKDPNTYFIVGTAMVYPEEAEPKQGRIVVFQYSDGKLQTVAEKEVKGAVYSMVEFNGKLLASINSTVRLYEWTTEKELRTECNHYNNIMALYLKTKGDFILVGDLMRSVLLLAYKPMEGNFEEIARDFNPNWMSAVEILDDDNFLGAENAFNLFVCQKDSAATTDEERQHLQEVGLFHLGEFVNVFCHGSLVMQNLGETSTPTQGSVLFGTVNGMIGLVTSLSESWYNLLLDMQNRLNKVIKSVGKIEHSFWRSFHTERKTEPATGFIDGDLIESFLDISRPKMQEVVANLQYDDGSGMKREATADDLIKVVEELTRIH
Assay type: cell-based
ASSAY CONDITIONS: DC50, GSPT1_HiBIT_HEK293 cells, 16 hours, Nano-Glo HiBiT Lytic Detection; read-out: GSPT1 degradation classification
OBSERVED PROPERTY: DC50

The cases that follow already have their DC50 on record.
>  <COMPOUND>
N#Cc1ccc(C2CC3(CC(NC(=O)c4ccc5c(c4)CN(C4CCC(=O)NC4=O)C5=O)C3)C2)cc1 (centres unmarked)

>  <DC50>
100 to 300 nM

$$$$
>  <COMPOUND>
Cc1ccc(C2CC3(C2)CN(C(=O)c2ccc4c(c2)CN(C2CCC(=O)NC2=O)C4=O)C3)cc1 (centres unmarked)

>  <DC50>
< 100 nM

$$$$
>  <COMPOUND>
O=C1CCC(c2nc3ccc(C(=O)N4Cc5ccc(F)c(Cl)c5C4)cc3o2)C(=O)N1 (centres unmarked)

>  <DC50>
> 1000 nM

$$$$
>  <COMPOUND>
O=C1CCC(N2Cc3cc(C(=O)N4CC5(CC(c6ccccc6F)C5)C4)ccc3C2=O)C(=O)N1 (centres unmarked)

>  <DC50>
< 100 nM

$$$$
>  <COMPOUND>
O=C1CCC(N2Cc3cc(C(=O)NC4CC5(C=C(c6ccc(F)cc6F)C5)C4)c(F)cc3C2=O)C(=O)N1 (centres unmarked)

>  <DC50>
100 to 300 nM

$$$$
>  <COMPOUND>
O=C1CCC(c2nc3ccc(C(=O)N4Cc5cccc(F)c5C4)cc3o2)C(=O)N1 (centres unmarked)

>  <DC50>
300 to 1000 nM

$$$$
>  <COMPOUND>
O=C1CCC(N2Cc3cc(C(=O)NC4CC5(C4)CC(c4ccc(F)cc4F)C5)ccc3C2=O)C(=O)N1 (centres unmarked)

>  <DC50>
< 100 nM

$$$$
>  <COMPOUND>
O=C1CCC(c2nc3ccc(C(=O)N4CC5(C=C(c6ccc(F)cc6)C5)C4)cc3o2)C(=O)N1 (centres unmarked)

>  <DC50>
> 1000 nM

$$$$
>  <COMPOUND>
Cc1cc(F)c2c(c1)CN(C(=O)c1ccc3nc(C4CCC(=O)NC4=O)oc3c1)C2 (centres unmarked)

>  <DC50>
> 1000 nM

$$$$
>  <COMPOUND>
O=C1CCC(N2Cc3cc(C(=O)NC4CC5(C4)CC(c4ccc(C(F)(F)F)cc4F)C5)ccc3C2=O)C(=O)N1 (centres unmarked)

>  <DC50>
100 to 300 nM

$$$$

// moving on: another record for DC50
Challenge: Dear colleague, please send me the reported DC50 for O=C1CCC(N2Cc3cc(C(=O)N4CC5(CC(c6ccc(C(F)(F)F)cc6)C5)C4)ccc3C2=O)C(=O)N1 (centres unmarked) when you can.
Response given: < 100 nM
